Data provenance is PubChem BioAssay (NCATS).

Molecular target: Chromobox protein homolog 1 (Homo sapiens)
Test: qHTS Validation Assay for Inhibitors of HP1-beta Chromodomain Interactions with Methylated Histone Tails (AID 488953); further: nearly all actives have a fitted effect of over 50% in size
Settings: HP1-beta chromodomain / methylated histone peptide binding assay; series mostly up to 114 µM
Inconclusive results are not listed. Calls of active or inactive are those of the source. The call rests on the fitted dose curve; in most records, active means well fitted inhibition curve with a large enough effect; inconclusive means small, poorly fitted or top-dose-only effect; inactive means no such curve, though single readings can be large or run the other way.
Just give me one of these, please: true = active, false = inactive

Req: Recorded test call requested for Cn1cc(C(F)(F)F)nc1-c1ccc(OCC(O)CNCCOc2ccc(O)c(C(N)=O)c2)cc1 (centres undefined)
Resp: false

Req: Recorded test call requested for C[C@](Cc1ccc(O)c(O)c1)(NN)C(=O)O
Resp: false

Req: Recorded test call requested for C/C(=C\c1ccc(C(=O)O)cc1)c1ccc2c(c1)C(C)(C)CCC2(C)C
Resp: false

Req: Recorded test call requested for CCCCCC(O)CCCC(=O)O (centres undefined)
Resp: false

Req: Recorded test call requested for Brc1c(Br)c(Br)c2[nH]cnc2c1Br
Resp: false

Req: Recorded test call requested for N#Cc1cc2nc(O)c(O)nc2cc1[N+](=O)[O-]
Resp: false

Req: Recorded test call requested for Nc1ccc(-c2nc3ccc(-c4nc5ccc(N)cc5[nH]4)cc3[nH]2)cc1
Resp: true

Req: Recorded test call requested for CC[C@@H]1Cc2cc(O)ccc2C2=C1c1ccc(O)cc1C[C@H]2CC
Resp: true

Req: Recorded test call requested for CC(N)(Cc1ccc(O)c(O)c1)C(=O)O (centres undefined)
Resp: true

Req: Recorded test call requested for c1ccc(C(NCc2cccnc2)(c2ccccc2)c2ccccc2)cc1
Resp: false

Req: Recorded test call requested for COc1cc(CC(=O)O)ccc1O
Resp: true

Req: Recorded test call requested for O=c1ccc2c(OCCCCc3ccccc3)c3ccoc3cc2o1
Resp: false

Req: Recorded test call requested for C=C1C[C@@]23CC[C@H]4[C@@](C)(CCC[C@@]4(C)C(=O)OC4OC(CO)C(O)C(O)C4O)[C@@H]2CC[C@]1(OC1OC(CO)C(O)C(O)C1OC1OC(CO)C(O)C(O)C1O)C3 (some centres undefined)
Resp: true

Req: Recorded test call requested for C=CC[C@H](N)C(=O)O
Resp: false

---

Target: Hexokinase-4 (Homo sapiens) + Glucokinase regulatory protein (Homo sapiens) (UniProt P35557+Q14397)
Sequence (P35557 whole entry, looked up): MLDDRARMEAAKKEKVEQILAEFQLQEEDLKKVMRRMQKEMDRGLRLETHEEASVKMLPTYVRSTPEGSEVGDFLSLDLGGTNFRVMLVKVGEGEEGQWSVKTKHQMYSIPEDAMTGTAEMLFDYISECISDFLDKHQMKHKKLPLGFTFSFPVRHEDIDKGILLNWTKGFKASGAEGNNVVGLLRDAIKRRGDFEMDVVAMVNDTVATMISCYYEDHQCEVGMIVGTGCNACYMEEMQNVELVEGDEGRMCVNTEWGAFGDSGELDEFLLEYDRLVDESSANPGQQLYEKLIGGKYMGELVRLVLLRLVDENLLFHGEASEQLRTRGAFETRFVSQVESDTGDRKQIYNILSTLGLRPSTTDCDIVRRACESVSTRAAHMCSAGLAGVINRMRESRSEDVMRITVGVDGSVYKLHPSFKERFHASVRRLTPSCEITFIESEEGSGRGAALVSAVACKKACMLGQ
Sequence (Q14397 whole entry, looked up): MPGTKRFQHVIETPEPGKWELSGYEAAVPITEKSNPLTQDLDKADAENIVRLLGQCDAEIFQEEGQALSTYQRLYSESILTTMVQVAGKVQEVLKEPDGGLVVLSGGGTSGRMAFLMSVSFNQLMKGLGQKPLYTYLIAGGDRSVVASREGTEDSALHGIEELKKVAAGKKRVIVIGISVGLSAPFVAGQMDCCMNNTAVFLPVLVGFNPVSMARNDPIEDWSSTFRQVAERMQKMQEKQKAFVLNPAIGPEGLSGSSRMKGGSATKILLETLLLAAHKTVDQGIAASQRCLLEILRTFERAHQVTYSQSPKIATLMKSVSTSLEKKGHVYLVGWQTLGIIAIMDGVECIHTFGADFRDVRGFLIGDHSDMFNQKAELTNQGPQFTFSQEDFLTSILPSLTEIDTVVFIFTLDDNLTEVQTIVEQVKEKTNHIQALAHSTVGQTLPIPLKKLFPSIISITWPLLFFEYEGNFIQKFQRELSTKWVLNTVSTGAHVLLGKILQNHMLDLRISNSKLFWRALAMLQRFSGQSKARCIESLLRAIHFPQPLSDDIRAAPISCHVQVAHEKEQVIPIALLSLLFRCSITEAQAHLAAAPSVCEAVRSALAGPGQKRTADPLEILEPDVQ
Assay: qHTS assay for inhibitors of recombinant human GCK-GKRP interaction: HTRF assay (AID 743207)
Conditions: recombinant GCK-GKRP HTRF binding, 60 min, with sorbitol-6-phosphate; series mostly up to 57.5 µM
Active and inactive are the calls of the source. Calls come from the whole dose curve; as a rule, active = well fitted curve in the direction sought with a large enough effect; inconclusive = small, poorly fitted or top-dose-only effect, or another doubt; inactive = no such curve, though single readings can be large or run the other way.
Just give me one of these, please: active, inactive

Req: Recorded test call requested for c1ccc2c(c1)CCC[C@H]2Nc1nc2ccccc2[nH]1
Resp: inactive

Req: Recorded test call requested for NC/C=C\C(=O)O
Resp: inactive

Req: Recorded test call requested for CCCCCCCC/C=C\CCCCCCCC(=O)NCCc1ccc(O)c(O)c1
Resp: inactive

Req: Recorded test call requested for COc1ccc2c(c1)c(CC(=O)O)c(C)n2Cc1ccc(Cl)cc1
Resp: inactive

Req: Recorded test call requested for [Li+]
Resp: inactive

Req: Recorded test call requested for CCCCCCCCCCCCCCC[C@H](O)[C@H](N)CO
Resp: inactive

Req: Recorded test call requested for O=C(OCCN1CCOCC1)C1(c2ccccc2)CCCCC1
Resp: inactive

Req: Recorded test call requested for Cn1cc(C(=O)OCC2CCN(CCNS(C)(=O)=O)CC2)c2ccccc21
Resp: inactive

Req: Recorded test call requested for COc1ccc(NC(=O)c2ccc(-c3ccc(-c4noc(C)n4)cc3C)cc2)cc1N1CCN(C)CC1
Resp: inactive

Req: Recorded test call requested for O=C(O)C1=CC(=C(c2ccc(O)c(C(=O)O)c2)c2ccc(O)c(C(=O)O)c2)C=CC1=O
Resp: active

Req: Recorded test call requested for N=S(=O)(O)Cc1noc2ccccc12
Resp: inactive
